Answer each item with its documented EC50.
System: Toxoplasma gondii
Experiment: ST_JUDE: Growth inhibition of to Toxoplasma gondii, in human U-2OS cells, as measured by luciferase.
Assay type: functional, organism-based
Details: RH, U2OS

IN: Bench note: what EC50 did "CCOC(=O)C1(Cc2cccc(C(F)(F)F)c2)CCN(Cc2ccccc2O)CC1" show?
OUT: > 22.6 µM

IN: Bench note: what EC50 did CC(C)CN1C(=O)c2ccccc2C(C(=O)Nc2ccc(F)cc2F)C1c1cccs1 (stereo not given) show?
OUT: > 23.7 µM

IN: Bench note: what EC50 did "CCOc1ccc(N(C(C)=O)C2=C(N3CCOCC3)C(=O)c3ccccc3C2=O)cc1" show?
OUT: 5.19 µM

IN: Bench note: what EC50 did "CCc1ccc(Nc2cc(C)c3ccc(O)cc3n2)cc1" show?
OUT: > 23.9 µM

IN: Bench note: what EC50 did "Cc1cccc(CN2CCC(CNC(=S)Nc3ccc4nc(N5CCN(C)CC5)cc(C)c4c3)CC2)c1" show?
OUT: > 23.2 µM

IN: Bench note: what EC50 did "C#CC[n+]1ccn2c(C)ccc2c1CC" show?
OUT: > 27.3 µM

IN: Bench note: what EC50 did Cc1ccc(NC(=O)C2c3ccccc3C(=O)N(CC(C)C)C2c2cccs2)c(Cl)c1 (stereo not given) show?
OUT: > 24.1 µM

IN: Bench note: what EC50 did "COc1ccc(Nc2cc(C)c3ccc(O)cc3n2)cc1" show?
OUT: 25.4 µM

IN: Bench note: what EC50 did Cc1ccc(C2CC(C(F)(F)F)n3nc(C(=O)N4CCN(C(c5ccccc5)c5ccccc5)CC4)cc3N2)cc1 (stereo not given) show?
OUT: > 23.4 µM

IN: Bench note: what EC50 did "O=C(Nc1cccc(Cl)c1N1CCOCC1)C(Cl)(Cl)Cl" show?
OUT: > 16.6 µM

====

Answer each item with its documented EC50.
Tested on: Leishmania major
Experiment: ST_JUDE: Cytotoxicity using Alamar Blue to measure viability of Leishmania major
Assay type: functional, organism-based

IN: Bench note: what EC50 did "Oc1ccc(Br)cc1CN1CCN(Cc2ccccc2F)CC1" show?
OUT: > 15.5 µM

IN: Bench note: what EC50 did COC(=O)c1ccc(NC(=O)C2c3ccccc3C(=O)N(CC(C)C)C2c2cccs2)cc1 (stereo not given) show?
OUT: > 16.6 µM

IN: Bench note: what EC50 did COc1ccc(NC(=O)C2c3ccccc3C(=O)N(CC(C)C)C2c2cccs2)cc1 (stereo not given) show?
OUT: > 20.4 µM

IN: Bench note: what EC50 did Cc1ccc(C2(c3ccc(C)cc3)CC2C(=O)Nc2ccc([N+](=O)[O-])cc2O)cc1 (stereo not given) show?
OUT: > 16.5 µM

IN: Bench note: what EC50 did CCOc1cc2c(cc1OCC)C(c1cc(Cl)ccc1O)NCC2 (stereo not given) show?
OUT: > 20.1 µM

====

Answer each item with its documented pEC50.
System: Plasmodium falciparum
Experiment: ST_JUDE: Plasmodium falciparum 3D7 EC50 (uM) as measured by SYBR green dye
Type: functional, organism-based
Keep it numeric: pEC50 is minus log10 of the concentration in mol/L.

IN: Bench note: what pEC50 did "COc1ccc(CCNC(=S)Nc2ccccc2Cl)cc1Br" show?
OUT: 6.02

IN: Bench note: what pEC50 did C=CCOC(=O)C1=C(C)N=C(C)/C(=C(\O)OCC=C)C1c1ccc(OC)c(OC)c1 (centres undefined) show?
OUT: 5.36

IN: Bench note: what pEC50 did "Cc1ccc(NC(=O)c2c(I)cnn2C)cc1[N+](=O)[O-]" show?
OUT: 6.15

IN: Bench note: what pEC50 did "CC(C)(C)c1ccc2c(c1)CN(Cc1ccccc1)CO2" show?
OUT: 6.62

IN: Bench note: what pEC50 did "CCCOc1ccc(CSC2=NCCN2)cc1[N+](=O)[O-]" show?
OUT: 5.16

IN: Bench note: what pEC50 did CO/C(O)=C1\C(C)=NC2=C(C(=O)CC(c3ccccc3OC)C2)C1c1cccs1 (centres undefined) show?
OUT: 5.41

IN: Bench note: what pEC50 did CC1Cc2nc(SCC(=O)Nc3cccc(F)c3)n(C)c(=O)c2S1 (centres undefined) show?
OUT: 5.79

IN: Bench note: what pEC50 did CCN(CC)CCN1C(=O)c2ccccc2NC1c1ccc(Cl)cc1 (centres undefined) show?
OUT: 6.24

IN: Bench note: what pEC50 did CCOc1cc2c(cc1OCC)C(c1cc(C)c(O)c(C)c1)NCC2 (centres undefined) show?
OUT: 5.74

IN: Bench note: what pEC50 did "O=C(N/N=c1/oc2ccc(Br)cc2cc1-c1nc2ccccc2[nH]1)c1ccncc1" show?
OUT: 5.33

IN: Bench note: what pEC50 did "CN1CCN(c2ccc(Nc3ccnc4cc(Cl)ccc34)cc2Cl)CC1" show?
OUT: 7.20

IN: Bench note: what pEC50 did "COc1ccc(NC(=O)CSc2nc(-c3ccccc3Cl)ns2)c(OC)c1" show?
OUT: 5.26

IN: Bench note: what pEC50 did CCCO/C(O)=C1\C(C)=NC2=C(C(=O)CC(c3ccccc3OC)C2)C1c1ccc(OC)c(OC)c1 (centres undefined) show?
OUT: 5.41

IN: Bench note: what pEC50 did "CCCCN(C)CCNC(=O)c1cc2c(-c3ccccc3F)nn(C)c2s1" show?
OUT: 5.79

IN: Bench note: what pEC50 did "COc1cc(CNc2cccc(Cl)c2)cc(I)c1OC" show?
OUT: 5.40

IN: Bench note: what pEC50 did "O=C(c1ccccc1)N1CCN(c2ccccc2NC(=O)C(Cl)(Cl)Cl)CC1" show?
OUT: 5.84

IN: Bench note: what pEC50 did O=C(NC(c1cccc([N+](=O)[O-])c1)c1cc(Cl)c2cccnc2c1O)c1cccnc1 (centres undefined) show?
OUT: 5.33

IN: Bench note: what pEC50 did "Cc1cccc(C)c1OCC(=O)N(Cc1ccc(C(C)C)cc1)Cc1ccco1" show?
OUT: 5.32

IN: Bench note: what pEC50 did "CCN(CC)CC/N=c1\cc(-c2ccc(OC)c(OC)c2)oc2ccc(Cl)cc12.[O-][Cl+3]([O-])([O-])O" show?
OUT: 6.27

IN: Bench note: what pEC50 did Oc1c(C(c2ccc(Cl)cc2)N2CCOCC2)ccc2cccnc12 (centres undefined) show?
OUT: 5.66

IN: Bench note: what pEC50 did CCOc1cc2c(cc1OCC)C(c1cc(Cl)c(O)c(OCC)c1)NCC2 (centres undefined) show?
OUT: 5.52

IN: Bench note: what pEC50 did "CC(=O)Nc1ccc(Nc2c3ccccc3nc3ccccc23)cc1" show?
OUT: 5.57

IN: Bench note: what pEC50 did "Cc1ccccc1Nc1nc(NCc2ccco2)c2ccccc2n1" show?
OUT: 5.45

IN: Bench note: what pEC50 did "CN1CCN(c2nc(Nc3ccc(F)cc3)c3cnn(-c4ccccc4)c3n2)CC1" show?
OUT: 5.83

IN: Bench note: what pEC50 did "CCc1ccc(Nc2cc(C)c3ccc(O)cc3n2)cc1" show?
OUT: 6.14

IN: Bench note: what pEC50 did CN(C)CCn1c(=N)n(CC(O)c2ccc(Cl)c(Cl)c2)c2ccccc21 (centres undefined) show?
OUT: 6.19

IN: Bench note: what pEC50 did "COc1ccc2nc(C)cc(Nc3ccc(Cl)c(Cl)c3)c2c1" show?
OUT: 5.94

====

Answer each item with its documented EC50.
System: Plasmodium falciparum
Test: ST_JUDE: Cytotoxicity against Plasmodium falciparum D10 transfected with yeast DHOD
Assay type: functional, organism-based
Supply the numeric figure in nM, leaving out any unit text.

IN: Bench note: what EC50 did "CC(C)(C)c1ccc(S(=O)(=O)NC2=C/C(=N\c3ccc(O)cc3)C(=O)c3ccccc32)cc1" show?
OUT: 244

IN: Bench note: what EC50 did CCCCCCn1c(=N)n(CC(O)COc2ccccc2C)c2ccccc21 (stereo unspecified) show?
OUT: 6570

IN: Bench note: what EC50 did COC(=O)c1ccc(NC(=O)C2c3ccccc3C(=O)N(CC(C)C)C2c2cccs2)cc1 (stereo unspecified) show?
OUT: 1360

IN: Bench note: what EC50 did "CSc1ccc2ccccc2[n+]1C" show?
OUT: 1110

IN: Bench note: what EC50 did CCOc1cc2c(cc1OCC)C(c1cc(C)c(O)c(C)c1)NCC2 (stereo unspecified) show?
OUT: 2770

IN: Bench note: what EC50 did COc1ccc(C2CC(=O)C3=C(C2)NC(=O)CC3c2ccc(OC)c(OC)c2)cc1 (stereo unspecified) show?
OUT: 1640

IN: Bench note: what EC50 did "CC(C)(C)C(=O)N1CCN(c2ccc([N+](=O)[O-])c(NC3CC3)c2)CC1" show?
OUT: 1360

IN: Bench note: what EC50 did "Clc1ccc(Nc2nc(NCc3ccco3)c3ccccc3n2)cc1" show?
OUT: 1150

IN: Bench note: what EC50 did "COc1ccc(O)c(CN2CCN(c3cc(C)ccc3C)CC2)c1" show?
OUT: 1230
